# pKd per record follows
Biological target: T1, cynomolgus monkey DLL4 extracellular domain (cynomolgus monkey)
T1 construct: extracellular domain; also called cynoDLL4 ECD; Cyno DLL4
Assay: SPR (Biacore)
Procedure: The BIACORE® surface plasmon resonance assay (Biacore, Inc., Piscataway, N.J., US) determines the affinity of antibodies with kinetic measurements of on-rate and off-rate constants. […] The equilibrium dissociation constant KD (M) of the reaction between antibodies and the target antigen was then calculated from the kinetic rate constants by the following formula: KD=Koff/Kₒₙ. Binding was recorded as a function of time and kinetic rate constants were calculated.
pKd: −log10 of the molar value.

binder	pKd
32C7 rat anti-DLL4 monoclonal antibody (antibody, rat IgG2a, V domains shown, rat IgG2a/k hybridoma mAb; also called MC10-32C7.5A4) VH: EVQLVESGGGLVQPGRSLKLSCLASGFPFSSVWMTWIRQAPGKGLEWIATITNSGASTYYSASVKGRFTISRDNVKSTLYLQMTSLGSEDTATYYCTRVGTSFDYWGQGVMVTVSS VL: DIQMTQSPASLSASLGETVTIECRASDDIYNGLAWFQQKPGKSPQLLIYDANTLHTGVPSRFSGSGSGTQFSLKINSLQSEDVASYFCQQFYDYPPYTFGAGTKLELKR	10.52
38H12 rat anti-DLL4 monoclonal antibody (antibody, rat IgG2a, V domains shown, rat IgG2a/k hybridoma mAb; also called MC10-38H12.2G8; 38H12 rat mAb) VH: EVQLVESGGGLVQPGRSLKLSCAASGFTFSNYGMYWIRQAPTKGLQWVAFISHGGGITYYRDSVKGRFTISRDNAKSTLYLQMDSLRSEDTATYHCAALNWELGIDYWGQGVMVTVSS VL: DIQMTQSPASLSASLGETISIECRASEDIYSNLAWYQKKSGKSPQLLIYAANRLQDGVPSRFSGSGSGTQYSLKISGMQPEDEGDYFCLQGSKFPLTFGSGTKLEIKR	9.40
1A11 rat anti-DLL4 monoclonal antibody (antibody, rat IgG1, V domains shown, rat IgG1/K hybridoma mAb; also called MC13-1A11.2E1; 1A11 (rat mAb)) VH: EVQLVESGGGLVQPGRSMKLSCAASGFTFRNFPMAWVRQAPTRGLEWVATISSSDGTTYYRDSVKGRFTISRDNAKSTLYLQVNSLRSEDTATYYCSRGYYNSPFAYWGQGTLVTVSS VL: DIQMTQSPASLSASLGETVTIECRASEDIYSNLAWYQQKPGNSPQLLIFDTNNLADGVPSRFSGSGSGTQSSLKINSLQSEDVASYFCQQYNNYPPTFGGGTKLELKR	8.09

The values you see were collected from patent US20110217237A1.
